- experimental system: Alpha-1B adrenergic receptor (Rattus norvegicus) (UniProt P15823)
- Sequence (P15823 whole entry): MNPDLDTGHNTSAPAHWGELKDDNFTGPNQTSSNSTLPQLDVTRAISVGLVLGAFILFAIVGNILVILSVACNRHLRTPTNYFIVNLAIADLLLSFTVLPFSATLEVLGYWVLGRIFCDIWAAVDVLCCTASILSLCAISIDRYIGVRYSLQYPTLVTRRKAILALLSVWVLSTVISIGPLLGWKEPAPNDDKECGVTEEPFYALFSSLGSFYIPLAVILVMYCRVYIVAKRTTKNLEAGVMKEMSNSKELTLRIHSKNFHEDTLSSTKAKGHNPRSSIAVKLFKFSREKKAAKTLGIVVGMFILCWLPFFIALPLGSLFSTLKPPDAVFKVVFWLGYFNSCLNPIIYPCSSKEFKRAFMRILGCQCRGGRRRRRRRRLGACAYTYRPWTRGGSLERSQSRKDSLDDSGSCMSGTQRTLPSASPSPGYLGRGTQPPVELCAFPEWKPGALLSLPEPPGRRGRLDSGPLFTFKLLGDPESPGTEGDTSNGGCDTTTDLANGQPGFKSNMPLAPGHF
- assay: Antagonist activity at adrenergic Alpha-1B receptor in Wistar rat spleen assessed as inhibition of […]-induced tissue contraction treated 30 mins before […] challenge
- Type: functional, tissue-based
Field: pKb. Provide a value for each of the molecules that follow.
Numbers only.

Here's what some known entries look like.
COc1ccccc1N1CCN(C[C@H]2CO[C@](CN3CCCC3=O)(c3ccccc3)O2)CC1 (relative stereo)
8.29
COc1ccccc1N1CCN(C[C@H]2CO[C@@](CN3CCCCCC3=O)(c3ccccc3)O2)CC1 (relative stereo)
8.42

// moving on: another record for pKb
`COc1ccccc1N1CCN(CCN2C(=O)CC3(CCCC3)CC2=O)CC1` yielded pKb of 7.48

----------
Here's a batch of molecules along with measured Ki for Alpha-1B adrenergic receptor (Homo sapiens, UniProt P35368).
Numbers only, in nM.

COc1ccccc1N1CCN(C[C@H]2CO[C@@](CN3CCCCCC3=O)(c3ccccc3)O2)CC1 (relative stereo)
72.4
COc1ccccc1N1CCN(C[C@@H]2CO[C@](CN3CCCC3=O)(c3ccccc3)O2)CC1 (relative stereo)
70.8
COc1ccccc1N1CCN(C[C@@H]2CO[C@@](CN3C(=O)CCCC3=O)(c3ccccc3)O2)CC1 (relative stereo)
132
COc1ccccc1N1CCN(C[C@@H]2CO[C@@](CN3CCCCCC3=O)(c3ccccc3)O2)CC1 (relative stereo)
18.2

// moving on: another record for Ki
`COc1ccccc1N1CCN(C[C@H]2CO[C@@](CN3CCCCC3=O)(c3ccccc3)O2)CC1` yielded Ki of 129

----------
- experimental system: 5-hydroxytryptamine receptor 1A (Homo sapiens, UniProt P08908)
- Sequence (P08908 whole entry): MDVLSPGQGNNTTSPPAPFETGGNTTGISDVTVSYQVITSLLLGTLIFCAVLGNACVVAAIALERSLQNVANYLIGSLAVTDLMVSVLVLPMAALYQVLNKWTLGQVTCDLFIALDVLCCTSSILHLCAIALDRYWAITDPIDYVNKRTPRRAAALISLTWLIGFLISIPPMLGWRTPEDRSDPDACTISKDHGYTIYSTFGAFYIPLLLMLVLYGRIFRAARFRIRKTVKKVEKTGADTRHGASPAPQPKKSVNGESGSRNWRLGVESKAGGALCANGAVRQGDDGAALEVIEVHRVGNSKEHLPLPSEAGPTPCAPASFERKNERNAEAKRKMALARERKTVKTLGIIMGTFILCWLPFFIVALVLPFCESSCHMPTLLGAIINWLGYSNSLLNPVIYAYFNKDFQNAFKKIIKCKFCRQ
- assay: Binding affinity to 5HT1A receptor
observation type: Ki (nM)
Give bare numbers, in nM.

COc1ccccc1N1CCN(CC2OCC(c3ccccc3)(c3ccccc3)O2)CC1 (stereo unspecified) yielded Ki of 15.1

----------
- experimental system: Alpha-1B adrenergic receptor (Rattus norvegicus) (UniProt P15823)
- assay: Antagonist activity at adrenergic Alpha-1B receptor in Wistar rat spleen assessed as inhibition of […]-induced tissue contraction treated 30 mins before […] challenge
- Assay type: functional, tissue-based
Field: pKb. Provide a value for each of the compounds that follow.

Here's what some known entries look like.
COc1ccccc1N1CCN(C[C@@H]2CO[C@@](CN3C(=O)CC4(CCCC4)CC3=O)(c3ccccc3)O2)CC1 (relative stereo)
7.47
COc1ccccc1N1CCN(C[C@H]2CO[C@@](CN3CCCCC3=O)(c3ccccc3)O2)CC1
7.93
COc1ccccc1N1CCN(C[C@@H]2CO[C@](CN3CCCC3=O)(c3ccccc3)O2)CC1 (relative stereo)
8.17

// moving on: another record for pKb
COc1ccccc1N1CCN(C[C@H]2CO[C@@](CN3C(=O)CCCC3=O)(c3ccccc3)O2)CC1 (relative stereo) yielded pKb of 7.12

----------
Field: pKb. Provide a value for each of the molecules that follow.
- experimental system: Alpha-1D adrenergic receptor (Rattus norvegicus) (UniProt P23944)
- Sequence (whole entry): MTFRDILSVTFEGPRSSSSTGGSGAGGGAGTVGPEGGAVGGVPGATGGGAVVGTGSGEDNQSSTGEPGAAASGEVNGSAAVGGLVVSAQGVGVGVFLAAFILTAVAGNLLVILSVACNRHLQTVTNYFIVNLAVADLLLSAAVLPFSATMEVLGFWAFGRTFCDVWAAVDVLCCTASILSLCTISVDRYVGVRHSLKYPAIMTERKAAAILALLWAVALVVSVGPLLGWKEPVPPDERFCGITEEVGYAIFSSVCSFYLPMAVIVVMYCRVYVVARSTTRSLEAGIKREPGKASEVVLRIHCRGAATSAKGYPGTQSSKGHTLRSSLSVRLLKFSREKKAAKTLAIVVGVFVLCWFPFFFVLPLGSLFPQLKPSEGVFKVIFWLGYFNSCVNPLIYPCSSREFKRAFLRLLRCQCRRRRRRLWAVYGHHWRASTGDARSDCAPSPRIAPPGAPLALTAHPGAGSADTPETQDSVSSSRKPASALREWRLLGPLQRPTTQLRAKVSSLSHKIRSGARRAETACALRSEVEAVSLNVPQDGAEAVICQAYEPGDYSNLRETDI
- assay: Antagonist activity at adrenergic Alpha-1D receptor in Wistar rat thoracic aorta assessed as inhibition of (-)-norepinephrine-induced vasocontraction treated 30 mins before (-)norepinephrine challenge
- Type: functional, tissue-based
Answers are plain numbers.

Here's what some known entries look like.
COc1ccccc1N1CCN(C[C@@H]2CO[C@](CN3CCCC3=O)(c3ccccc3)O2)CC1 (relative stereo)
7.43
COc1ccccc1N1CCN(C[C@@H]2CO[C@@](CN3C(=O)CCC3=O)(c3ccccc3)O2)CC1 (relative stereo)
7.78
COc1ccccc1N1CCN(C[C@@H]2CO[C@@](CN3CCCCCC3=O)(c3ccccc3)O2)CC1 (relative stereo)
7.75
COc1ccccc1N1CCN(C[C@H]2CO[C@@](CN3C(=O)CC4(CCCC4)CC3=O)(c3ccccc3)O2)CC1 (relative stereo)
6.78

Please give pKb, item by item, for the list that follows.
1. COc1ccccc1N1CCN(C[C@H]2CO[C@@](CN3C(=O)CCCC3=O)(c3ccccc3)O2)CC1 (relative stereo)
2. COc1ccccc1N1CCN(C[C@H]2CO[C@@](CN3CCCCC3=O)(c3ccccc3)O2)CC1

1. 6.19
2. 6.74

----------
- experimental system: 5-hydroxytryptamine receptor 1A (Homo sapiens)
- assay: Agonist activity at human cloned 5HT1A receptor expressed in human HeLa cells assessed as stimulation of [35S]GTPgammaS binding after 20 mins by liquid scintillation counting
- Type: functional, cell-based
Categorize each record by its pD2 using lower (below 7), middle (7 to below 8), upper (8 or more)

Answered cases to consult:
COc1ccccc1N1CCN(C[C@H]2CO[C@@](CN3C(=O)CCCC3=O)(c3ccccc3)O2)CC1 (relative stereo)
middle
CCCN(CCC)C1CCc2cccc(O)c2C1 (centres undefined)
upper

Returns: class label. Input: COc1ccccc1N1CCN(CC2OCC(c3ccccc3)(c3ccccc3)O2)CC1 (centres undefined) upper

Returns: class label. Input: COc1ccccc1N1CCN(C[C@@H]2CO[C@@](CN3CCCCCC3=O)(c3ccccc3)O2)CC1 (relative stereo) lower

----------
- experimental system: Alpha-1D adrenergic receptor (Rattus norvegicus) (UniProt P23944)
- assay: Antagonist activity at adrenergic Alpha-1D receptor in Wistar rat thoracic aorta assessed as inhibition of (-)-norepinephrine-induced vasocontraction treated 30 mins before (-)norepinephrine challenge
- Type: functional, tissue-based
observation type: pKb
One number for each entry.

Please give pKb, item by item, for the list that follows.
1. COc1ccccc1N1CCN(C[C@H]2CO[C@](CN3CCCC3=O)(c3ccccc3)O2)CC1 (relative stereo)
2. COc1ccccc1N1CCN(CC2OCC(c3ccccc3)(c3ccccc3)O2)CC1 (centres undefined)

6.79
8.14

Please give pKb, item by item, for the list that follows.
1. COc1ccccc1N1CCN(C[C@@H]2CO[C@@](CN3C(=O)CC4(CCCC4)CC3=O)(c3ccccc3)O2)CC1 (relative stereo)
2. COc1ccccc1N1CCN(C[C@H]2CO[C@@](CN3CCCCCC3=O)(c3ccccc3)O2)CC1 (relative stereo)

[8.51, 7.57]

----------
Field: pKi. Provide a value for each of the compounds that follow.
- experimental system: Alpha-1D adrenergic receptor (Homo sapiens, UniProt P25100)
- Sequence (P25100 whole entry): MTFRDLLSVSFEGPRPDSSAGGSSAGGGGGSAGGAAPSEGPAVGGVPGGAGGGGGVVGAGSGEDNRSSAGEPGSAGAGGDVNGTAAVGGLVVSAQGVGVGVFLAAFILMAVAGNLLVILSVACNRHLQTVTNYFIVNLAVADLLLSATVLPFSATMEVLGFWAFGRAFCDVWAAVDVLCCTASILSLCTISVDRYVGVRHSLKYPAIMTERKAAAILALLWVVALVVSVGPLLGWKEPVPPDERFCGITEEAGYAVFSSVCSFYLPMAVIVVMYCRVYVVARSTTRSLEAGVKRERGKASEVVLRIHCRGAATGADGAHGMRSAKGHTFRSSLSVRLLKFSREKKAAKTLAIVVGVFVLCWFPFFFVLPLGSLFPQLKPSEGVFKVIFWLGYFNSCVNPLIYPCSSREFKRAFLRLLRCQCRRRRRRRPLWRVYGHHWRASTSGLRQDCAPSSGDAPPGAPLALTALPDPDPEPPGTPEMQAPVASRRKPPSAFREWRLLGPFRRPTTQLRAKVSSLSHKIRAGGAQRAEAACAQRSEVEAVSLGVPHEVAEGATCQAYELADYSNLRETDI
One number for each entry, as −log10 of the molar value.

Please give pKi, item by item, for the list that follows.
1. COc1ccccc1N1CCN(CC2OCC(c3ccccc3)(c3ccccc3)O2)CC1 (stereo unspecified)
2. COc1ccccc1N1CCN(C[C@H]2CO[C@@](CN3C(=O)CCCC3=O)(c3ccccc3)O2)CC1 (relative stereo)

[9.09, 7.49]

----------
- experimental system: Alpha-1B adrenergic receptor (Rattus norvegicus) (UniProt P15823)
- assay: Antagonist activity at adrenergic Alpha-1B receptor in Wistar rat spleen assessed as inhibition of […]-induced tissue contraction treated 30 mins before […] challenge
- Format: functional, tissue-based
So basically: pKb at 7 or higher? That is fulfilled. Lower than 7? That is not fulfilled.

Answered cases to consult:
COc1ccccc1N1CCN(CC2OCC(c3ccccc3)(c3ccccc3)O2)CC1 (configuration not stated)
not fulfilled
COc1ccccc1N1CCN(C[C@@H]2CO[C@@](CN3CCCCCC3=O)(c3ccccc3)O2)CC1 (relative stereo)
fulfilled

Decide: is the reported value of pKb for COc1ccccc1N1CCN(C[C@@H]2CO[C@@](CN3C(=O)CCCC3=O)(c3ccccc3)O2)CC1 (relative stereo) equal to or greater than 7? fulfilled

Decide: is the reported value of pKb for COc1ccccc1N1CCN(C[C@@H]2CO[C@@](CN3CCCCC3=O)(c3ccccc3)O2)CC1 (relative stereo) equal to or greater than 7? fulfilled

Decide: is the reported value of pKb for COc1ccccc1N1CCN(C[C@H]2CO[C@@](CN3C(=O)CC4(CCCC4)CC3=O)(c3ccccc3)O2)CC1 (relative stereo) equal to or greater than 7? fulfilled
